tested system: DESI2 (Homo sapiens, UniProt Q9BSY9)
Sequence (Q9BSY9 whole entry): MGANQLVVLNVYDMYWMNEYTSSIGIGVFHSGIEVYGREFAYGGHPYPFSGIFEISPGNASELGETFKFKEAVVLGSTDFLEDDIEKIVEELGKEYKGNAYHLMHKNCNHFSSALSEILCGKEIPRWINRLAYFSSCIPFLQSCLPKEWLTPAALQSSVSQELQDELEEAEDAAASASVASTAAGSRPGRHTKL
parameter measured: IC50 (µM)
One number for each entry, in µM.

Inquiry: Requested read-out: IC50. Entry: N#CN1CC[C@H](C(=O)Nc2nc3cc(-c4ccc5c(c4)OCO5)ccc3s2)C1
Reply text: 0.0473
